- protocol description: mitochondrial function rescue without frataxin homolog – Friedreich's ataxia, plus single-dose screen, dose response (AID 1465)
- test parameters: S. cerevisiae Yfh1-off respiration, WST-1 reduction, 72 h; at 50 µM; hits give high values
The whole screen tested about 220,000 compounds, of which about 160 (0.073%) were called active. Not all results are given here. Entries with a potency or affinity are not part of this list.
Please use Criterion met whenever fold induction is not below 1, and Criterion not met whenever it is.

Check this compound for fold induction at or above 1: O=C(OCCOc1ccccc1)c1n[nH]c2ccccc12
Criterion not met

Determine whether measured fold induction meets or exceeds 1 for CCNS(=O)(=O)c1ccc(NC(=O)Nc2ccccc2OC)cc1
Criterion met

fold induction >= 1 for CCCCC(=O)NC(=S)NNC(=O)CC#N ?
Criterion not met

Tell me whether fold induction is at least 1 here: CC(=O)Oc1cccc(-c2nc3ccccc3c(=O)o2)c1
Criterion not met

Does the reported fold induction for COc1ccc(CN2C3CCCC2CC(NC(=O)Nc2cccc(C)c2)C3)cc1 (stereo unspecified) fall at or above the 1 mark?
Criterion not met

---

- protocol description: mitochondrial function rescue without frataxin homolog – Friedreich's ataxia, plus single-dose screen, dose response (AID 1465)
- test parameters: S. cerevisiae Yfh1-off respiration, WST-1 reduction, 72 h; at 50 µM; hits give high values
Among all 220,000 compounds or so, about 160 (0.073%) were called active. Only a sample is shown. Results with a measured potency or affinity are listed apart.
measured metric: fold induction
Numbers only.

Sample answers from the record:
compound=O=[N+]([O-])c1cccc(/C=N/Nc2nc(NCc3ccccc3)nc(N3CCOCC3)n2)c1 measured_metric="fold induction" result_number=1.03
compound=O=C(Nc1ccccc1-c1nc2ccccc2[nH]1)c1ccc(N2C(=O)CCC2=O)cc1 measured_metric="fold induction" result_number=1.11
compound=CN(C)c1ccc(NC(=O)C(=O)NCCOc2ccccc2)cc1 measured_metric="fold induction" result_number=0.95
compound=COc1ccc(C(=O)NCC(=O)N/N=C/C=C/c2ccccc2)cc1OC measured_metric="fold induction" result_number=0.96
compound=CC(=O)Nc1nc2cc3c(cc2s1)OCO3 measured_metric="fold induction" result_number=0.99
compound=O=C(c1cc2c(s1)CCCC2)N1CCN(S(=O)(=O)c2ccccc2C(F)(F)F)CC1 measured_metric="fold induction" result_number=0.91
compound=Cc1cc(/C=N/NC(=O)c2ccccc2F)c(C)n1-c1ccccc1 measured_metric="fold induction" result_number=1.02
compound=CN(C(=O)COC(=O)c1ccc(Cl)cc1N)C1CCCCC1 measured_metric="fold induction" result_number=1.06

Batch request: fold induction for each of the following compounds.
1. COc1ccc(/C=N/NC(=O)c2cc(C)n(-c3ccccc3)c2C)cc1OC
2. O=[N+]([O-])c1ccc(/C=N/Nc2nc(NCc3ccccc3)nc(N3CCOCC3)n2)cc1
3. COC(=O)[C@H](C)NC(=O)Nc1ccc(OC)cc1OC
4. CCOC(=O)c1ccc(NNC(=O)CC)c([N+](=O)[O-])c1
5. O=[N+]([O-])c1cccc(CSc2cccc[n+]2[O-])c1
6. COc1c(Cl)cc(Cl)cc1C(=O)n1nc(C)cc1C
7. CCC(=O)NNc1ncnc2c1cnn2C
8. Cc1ccc2c3c(cccc13)-c1ccccc1C2=O

1: 0.99; 2: 1.08; 3: 1.1; 4: 1.03; 5: 1.1; 6: 0.88; 7: 1.06; 8: 0.91

// each listed compound needs a value for fold induction
1. Cc1sc2ncn(CC(=O)Nc3ccccc3F)c(=O)c2c1-c1ccccc1
2. COc1ccc(NC(=S)NNc2ccc([N+](=O)[O-])cc2S(=O)(=O)Nc2ccc(C)cc2C)cc1
3. NC(=O)c1cccc2c(=O)oc3ccccc3c12
4. Cc1coc2c1C(=O)C(=O)c1c-2ccc2c1CCCC2(C)C
5. Cc1sc2nc(SC3CCOC3=O)n(Cc3ccccc3)c(=O)c2c1C (stereo not drawn)
6. Cc1cc2ccccc2n2c(SCC(=O)NCC3CCCO3)nnc12 (stereo not drawn)
7. C=CCn1c(C)cc(C(=O)COc2ncnc3sccc23)c1C

1: 0.95; 2: 1.25; 3: 0.99; 4: 1.54; 5: 0.94; 6: 0.94; 7: 0.88

---

- protocol description: mitochondrial function rescue without frataxin homolog – Friedreich's ataxia, plus single-dose screen, dose response (AID 1465)
- test parameters: S. cerevisiae Yfh1-off respiration, WST-1 reduction, 72 h; at 50 µM; hits give high values
About 160 (0.073%) of roughly 220,000 compounds were called active. Only a sample is shown. Results with a measured potency or affinity are listed apart.
Class true: fold induction at least 1. Class false: fold induction below 1.

molecule=NNC(=O)CCc1c[nH]c2ccccc12 class=false

Does fold induction meet or surpass 1 for COC(=O)c1cc2c(ccn2-c2ccc(F)cc2)n1Cc1ccc(C#N)cc1 ?
true

API: above_or_equal(metric=fold induction, cutoff=1) for item CCN(CC)c1ccc(/C=N/NC(=O)c2cccc(S(=O)(=O)Nc3ccccc3OC)c2)cc1
true

Item Cc1ccc(CCCOC(=O)C[N+]2(C)CCOCC2)cc1 with fold induction of 1 or above?
true

Dear colleague, could you confirm whether COc1ccc(OC)c(N2C(=O)CC(Cc3ccc(C)cc3)C2=O)c1 (stereo not drawn) has fold induction at or above 1?
false

Would you say C[C@@H]1Cc2c(O)c(O)cc(O)c2C(=O)O1 shows fold induction at minimum 1?
true

---

- protocol description: mitochondrial function rescue without frataxin homolog – Friedreich's ataxia, plus single-dose screen, dose response (AID 1465)
- test parameters: S. cerevisiae Yfh1-off respiration, WST-1 reduction, 72 h; at 50 µM; hits give high values
Hit rate of the full screen: of about 220,000 compounds, about 160 (0.073%) were called active. Only a sample is shown. Entries with a potency or affinity are not part of this list.
I would appreciate it if you labelled entries fulfilled when fold induction is 1 or higher, otherwise not fulfilled.

Does CCNC(=S)N(Cc1ccc(OC)cc1)C1CC(=O)N(c2ccc(OCC)cc2)C1=O (stereo not drawn) have a reported fold induction of at least 1?
not fulfilled

In plain terms: is recorded fold induction at least 1 for N#C/C(C(=O)N1CCCCC1)=C1\Nc2ccccc2S1 ?
not fulfilled

Hi, just wondering whether c1csc(-c2nnc(N3CCOCC3)c3ccccc23)c1 shows fold induction of 1 or higher.
fulfilled

Confirm if fold induction reported for the compound Cc1nc2c(C)cccn2c1/C(O)=C1\C(=O)C(=O)N(CCN(C)C)C1c1ccncc1 (stereo not drawn) is 1 or above.
fulfilled

hey, is fold induction for this one >= 1? Clc1ccc(-c2n[nH]c3c2CCC3)cc1Cl
not fulfilled

State whether the measured fold induction reaches 1, counting equality as reaching it, for O=C(O)CCc1nn2c3ccccc3nc2n(CCN2CCCCC2)c1=O
fulfilled

Could you tell me if the measured fold induction of O=C(Cn1cnc2cc([N+](=O)[O-])ccc2c1=O)Nc1ccc2c(c1)OCO2 reaches 1 or more?
not fulfilled

Is the recorded value of fold induction equal to or greater than 1 for this compound? CCCCCC(=O)NC(=S)NNC(=O)CC
not fulfilled

# bool: fold induction of Cc1ccccc1-c1nc(CN2CCSCC2)c(C)o1 >= 1
fulfilled

Reported fold induction at or above 1? Cc1ccc(CN2C(=O)CCC2C(=O)NC(C)C)cc1 (stereo not drawn)
fulfilled

Given the entry COc1cc([N+](=O)[O-])cc(/C=N/NC(=O)c2cc(C)nc3ccccc23)c1O , answer whether its fold induction meets or surpasses 1.
fulfilled

Does the compound CN1/C(=C\C=C2/SC(=S)NC2=O)C(C)(C)c2ccccc21 have recorded fold induction that is 1 or more?
fulfilled

---

- protocol description: mitochondrial function rescue without frataxin homolog – Friedreich's ataxia, plus single-dose screen, dose response (AID 1465)
- test parameters: S. cerevisiae Yfh1-off respiration, WST-1 reduction, 72 h; at 50 µM; hits give high values
Screen size: about 220,000 compounds; about 160 (0.073%) were called active. The list is a sample of the results. Entries with a potency or affinity are not part of this list.
Each record's class is read off its fold induction using these ranges: L: < 0.9; M: ≥ 0.9 and < 1; H: ≥ 1

Example results:
compound=COc1ccccc1N1CCN(Cc2cc(Br)c(O)c3ncccc23)CC1 class=L
compound="CCCC(=O)NC(c1ccc2c(c1)OCO2)c1cc(Cl)c2cccnc2c1O (stereo unspecified)" class=H
compound=COCC(=O)N1CCCN(c2nc3c(C)cccc3cc2C#N)CC1 class=M
compound="O=C(O)C(Cc1ccccc1)N1C(=O)/C(=C/c2ccccc2)SC1=S (stereo unspecified)" class=M
compound=O=[N+]([O-])c1ccc(O)c2ncccc12 class=H

Quick check: band for Oc1ccc(CN2CCN(Cc3ccccc3)CC2)c2cccnc12
H

For this compound, which bin applies? Cc1[nH]nc(SCC(=O)NC2CCCC2)c1[N+](=O)[O-]
H

Hi there! Could you help me figure out the category for CC[n+]1c(/C=C2\C=C(C)CC(C)(C)C2)sc2ccccc21 please?
L
